So I've got a bunch of compounds here, and I need their inhibition at 50 mg/kg values.
System: BCG-LPS-induced fulminant hepatitis
Experiment: Inhibitory effect on BCG-LPS-induced fulminant hepatitis in mice (antihepatitis effect)
Format: in vivo, BALB/C mice
Conditions: Mus musculus, po; 50 mg/kg orally; plasma transaminase at hour 4 after LPS; read-out: % Inhibition GPT
Give the value, in units of %, as a plain number.

Q: Identify the measured inhibition at 50 mg/kg of Cl.Nc1nc(-c2cc(Cl)ccc2Cl)nc(N2CCC[C@H]2CO)n1 [Example 32, hydrochloride] for BCG-LPS-induced fulminant hepatitis.
Result: 60

Q: Identify the measured inhibition at 50 mg/kg of CN(C)c1nc(N)nc(-c2cc(Cl)ccc2Cl)n1 [Example 3] for BCG-LPS-induced fulminant hepatitis.
Result: 38

Q: Identify the measured inhibition at 50 mg/kg of Cc1ccc(OCCN2CCN(c3nc(N)nc(-c4cc(Cl)ccc4Cl)n3)CC2)cc1 [Example 21] for BCG-LPS-induced fulminant hepatitis.
Result: 10

Q: Identify the measured inhibition at 50 mg/kg of COCCNc1nc(N)nc(-c2cc(Cl)ccc2Cl)n1 [Example 6] for BCG-LPS-induced fulminant hepatitis.
Result: 29

Q: Identify the measured inhibition at 50 mg/kg of Nc1nc(-c2cc(Cl)ccc2Cl)nc(N2CCOCC2)n1 [Reference Example 5] for BCG-LPS-induced fulminant hepatitis.
Result: 45

Q: Identify the measured inhibition at 50 mg/kg of Nc1nc(-c2cc(Cl)ccc2Cl)nc(N2CCCC(O)C2)n1 (stereo not shown) [Example 37] for BCG-LPS-induced fulminant hepatitis.
Result: 38

Q: Identify the measured inhibition at 50 mg/kg of Nc1nc(N)nc(-c2cc(Cl)ccc2Cl)n1 [Reference Compound, reference compound] for BCG-LPS-induced fulminant hepatitis.
Result: -6

Q: Identify the measured inhibition at 50 mg/kg of Nc1nc(-c2cc(Cl)ccc2Cl)nc(N(CCO)CCO)n1 [Example 1] for BCG-LPS-induced fulminant hepatitis.
Result: 17

Q: Identify the measured inhibition at 50 mg/kg of Cl.Cl.NCC1CCN(c2nc(N)nc(-c3cc(Cl)ccc3Cl)n2)C1 (stereo not shown) [Example 62, dihydrochloride] for BCG-LPS-induced fulminant hepatitis.
Result: 38

Q: Identify the measured inhibition at 50 mg/kg of Nc1nc(-c2cc(Cl)ccc2Cl)nc(N2CCC(O)C2)n1.O=C(O)/C=C\C(=O)O (stereo not shown) [Example 31, maleate] for BCG-LPS-induced fulminant hepatitis.
Result: 34
